- test: Evaluation on pharmacokinetics in SD rats, intragastric administration
- Format: in vivo
- recorded_conditions: male, SD, rat, plasma, po, 5 mg/kg, suspension in water, read-out: T1/2 (drug elimination half-life) (converted)
experimental_readout: half-life (h)
Entry rule: numbers only, all in h.

Name the recorded half-life of the item C=CC(=O)Nc1cc2c(Nc3ccc(F)c(Cl)c3)ncnc2cc1OCC1CC2(CCN(C)CC2)C1 [Amorphous form] in your answer.
3.08

====

- test: Evaluation on pharmacokinetics in SD rats, intragastric administration
- Type: in vivo
- recorded_conditions: male, SD, rat, plasma, po, 5 mg/kg, suspension in water, read-out: Cmax (maximum blood concentration)
- Procedure: An amorphous form of a compound of Formula (I), the preparation method of which could be found in the particular Examples as disclosed in the international patent application (Publication No. WO 2012027960 A1). Test animal: SD rats, male, weighed 190-250 g, 6 rats for each crystal form, purchased from Beijing Vital River Laboratory Animal Technology Co., Ltd. […] Calculation for PK parameters: PK parameters were calculated by using Pharsight Phoenix 6.2 software.
experimental_readout: Cmax (ng/mL)
Entry rule: numbers only, all in ng/mL.

Name the recorded Cmax of the item C=CC(=O)Nc1cc2c(Nc3ccc(F)c(Cl)c3)ncnc2cc1OCC1CC2(CCN(C)CC2)C1 [Amorphous form] in your answer.
105

====

- test: Evaluation on pharmacokinetics in SD rats, intragastric administration
- Assay type: in vivo
- recorded_conditions: male, SD, rat, plasma, po, 5 mg/kg, suspension in water, read-out: AUC0-t
experimental_readout: AUC0-t (ng·h/mL)
Entry rule: numbers only, all in ng·h/mL.

Name the recorded AUC0-t of the item C=CC(=O)Nc1cc2c(Nc3ccc(F)c(Cl)c3)ncnc2cc1OCC1CC2(CCN(C)CC2)C1 [Amorphous form] in your answer.
1140

====

- test: Comparison of stability between crystal forms and amorphous form, 60° C. uncovered, relevant substances by HPLC
- Format: physicochemical
- recorded_conditions: 60° C. uncovered-10 days
# reported Total relevant substances; entries follow
# answer = value followed by unit

compound: C=CC(=O)Nc1cc2c(Nc3ccc(F)c(Cl)c3)ncnc2cc1OCC1CC2(CCN(C)CC2)C1 [Crystal form II]
experimental_readout: Total relevant substances
test_value: 0.70%
--
compound: C=CC(=O)Nc1cc2c(Nc3ccc(F)c(Cl)c3)ncnc2cc1OCC1CC2(CCN(C)CC2)C1 [Amorphous form]
experimental_readout: Total relevant substances
test_value: 3.2%
--
compound: C=CC(=O)Nc1cc2c(Nc3ccc(F)c(Cl)c3)ncnc2cc1OCC1CC2(CCN(C)CC2)C1 [Crystal form III]
experimental_readout: Total relevant substances
test_value: 2.0%

Query compound follows.
Name the recorded Total relevant substances of the item C=CC(=O)Nc1cc2c(Nc3ccc(F)c(Cl)c3)ncnc2cc1OCC1CC2(CCN(C)CC2)C1 [Crystal form I] in your answer.
0.47%

====

- test: Evaluation on pharmacokinetics in SD rats, intragastric administration
- Assay type: in vivo
- recorded_conditions: male, SD, rat, plasma, po, 5 mg/kg, suspension in water
experimental_readout: AUC(0-inf) (ng·h/mL)
Entry rule: numbers only, all in ng·h/mL.

Name the recorded AUC(0-inf) of the item C=CC(=O)Nc1cc2c(Nc3ccc(F)c(Cl)c3)ncnc2cc1OCC1CC2(CCN(C)CC2)C1 [Amorphous form] in your answer.
1150

====

# reported Total relevant substances; entries follow
- test: Comparison of stability between crystal forms and amorphous form, 60° C. uncovered, relevant substances by HPLC
- Assay type: physicochemical
- recorded_conditions: 60° C. uncovered-5 days
Entry rule: numbers only, all in %.

Some compounds with known Total relevant substances results, for comparison:
compound: C=CC(=O)Nc1cc2c(Nc3ccc(F)c(Cl)c3)ncnc2cc1OCC1CC2(CCN(C)CC2)C1 [Crystal form II]
test_value: 0.66
--
compound: C=CC(=O)Nc1cc2c(Nc3ccc(F)c(Cl)c3)ncnc2cc1OCC1CC2(CCN(C)CC2)C1 [Amorphous form]
test_value: 2.4
--
compound: C=CC(=O)Nc1cc2c(Nc3ccc(F)c(Cl)c3)ncnc2cc1OCC1CC2(CCN(C)CC2)C1 [Crystal form III]
test_value: 1.1

Query compound follows.
Name the recorded Total relevant substances of the item C=CC(=O)Nc1cc2c(Nc3ccc(F)c(Cl)c3)ncnc2cc1OCC1CC2(CCN(C)CC2)C1 [Crystal form I] in your answer.
0.48

====

- test: Comparison of stability between crystal forms and amorphous form, 60° C. uncovered, relevant substances by HPLC
- Type: physicochemical
- recorded_conditions: 0 day
# reported Total relevant substances; entries follow
Entry rule: numbers only, all in %.

compound: C=CC(=O)Nc1cc2c(Nc3ccc(F)c(Cl)c3)ncnc2cc1OCC1CC2(CCN(C)CC2)C1 [Amorphous form]
unit_of_measure: %
Total relevant substances: 1.1

Name the recorded Total relevant substances of the item C=CC(=O)Nc1cc2c(Nc3ccc(F)c(Cl)c3)ncnc2cc1OCC1CC2(CCN(C)CC2)C1 [Crystal form I] in your answer.
0.23

Name the recorded Total relevant substances of the item C=CC(=O)Nc1cc2c(Nc3ccc(F)c(Cl)c3)ncnc2cc1OCC1CC2(CCN(C)CC2)C1 [Crystal form III] in your answer.
0.81

Name the recorded Total relevant substances of the item C=CC(=O)Nc1cc2c(Nc3ccc(F)c(Cl)c3)ncnc2cc1OCC1CC2(CCN(C)CC2)C1 [Crystal form II] in your answer.
0.64

The measured values listed here are drawn from patent US10689359B2.
